This section presents binders with their documented EC50 values.
# experimental.system: T1, cHER3ECD (Maccaca fascicularis HER3 extracellular domain) (Macaca fascicularis, UniProt P21860 20-643 (human entry))
# T1 construct: also called cyno HER3ECD; cyno HER3-ECD
# T1 chain: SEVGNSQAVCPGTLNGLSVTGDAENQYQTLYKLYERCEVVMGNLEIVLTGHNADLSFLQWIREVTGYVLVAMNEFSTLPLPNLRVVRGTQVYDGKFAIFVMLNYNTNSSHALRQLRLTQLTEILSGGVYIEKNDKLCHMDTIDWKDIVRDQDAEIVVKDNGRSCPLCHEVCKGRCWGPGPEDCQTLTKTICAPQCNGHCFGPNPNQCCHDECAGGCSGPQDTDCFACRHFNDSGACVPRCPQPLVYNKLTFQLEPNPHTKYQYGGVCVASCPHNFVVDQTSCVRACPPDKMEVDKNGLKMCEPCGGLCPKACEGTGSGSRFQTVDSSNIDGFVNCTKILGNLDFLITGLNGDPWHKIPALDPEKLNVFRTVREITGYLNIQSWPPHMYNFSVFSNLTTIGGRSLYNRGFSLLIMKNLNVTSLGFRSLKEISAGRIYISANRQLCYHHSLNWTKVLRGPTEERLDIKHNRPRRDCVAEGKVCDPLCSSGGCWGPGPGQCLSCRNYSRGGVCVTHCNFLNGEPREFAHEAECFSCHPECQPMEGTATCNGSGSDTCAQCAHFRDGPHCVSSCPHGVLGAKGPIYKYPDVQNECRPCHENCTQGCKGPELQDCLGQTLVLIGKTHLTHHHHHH
# assay.summary: ELISA, coated cHER3-ECD
Response body: numeric value in nM, unit text excluded.

// below: answered binders
1. 34C07 (VHH, c-myc, His6-tagged form as expressed; also called 34C7; HER3MS34C07) VHH: EVQLVESGGGLVQPGGSLGLSCVASGSIFRINAMAWYRQAPGKQRELVAEITAGGSTNYADSVKGRFTISVDNAWNTLYLQMNSLKVEDTAVYYCNLDHYTTWDRRSAYWGQGTQVTVSS : 0.43
2. 18G11 (VHH, c-myc, His6-tagged form as expressed; also called HER3MS18G11; HER3MS018G11) VHH: EVQLVESGGGLVQPGGSLRLSCAASGTLFKINAMGWYRQAPGKRRELVALITSSDTTDYAESVEGRFTISRDNTWNAVYLQMNSLKPEDTAVYYCHSDHYSMGVPEKRVIMYGQGTQVTVSS : 0.64
3. 04C07 (VHH, also called HER3MS04C07; HER3MS004C07) VHH: EVQLVESGGGLVQAGGSLRLSCAASGFTFSSYPMSWVRQAPGKGPAWVSTVSPGGITTSYADSVKGRFTISRDNAKNTLYLQMNSLKPEDTAVYYCLRDLNNRGQGTQVTVSS : 0.93

Task item: Give EC50 for 18E08 (VHH) VHH: EVQLVESGGGLVQPGGSLRLSCAASGTLFKINAMGWYRQAPGKQRELVALITSSDTTDYAESVEGRFTISRDNTWNAVYLQMNSLKPEDTAVYYCHSDHYSMGVPEKRVIMYGQGTQVTVSS
Reply: 4.4

The measurements presented in this section are drawn from patent US20130136748A1.
